Experiment: Ratio of drug level in liver to skeletal muscle in C57BL/6 db/+ mouse at 30 mg/kg, po administered as single dose measured after 2 hrs
Conditions: in vivo
Hi! Could you tag entries with Ratio below 4 as Yes, and those at or above as No? Much appreciated.

The following compounds have reported results that may help.
Incoming: Take the compound Cc1ccc(Oc2nc3cc(-c4ccc(-c5ccccc5)cc4)c(Cl)cc3[nH]2)cc1C(=O)O and say whether its Ratio is less than 4.
Outgoing: No

Incoming: Take the compound O=C(O)[C@H]1CC[C@@H](Oc2nc3nc(-c4ccc(N5CCCC5)cc4)c(Cl)cc3[nH]2)CC1 and say whether its Ratio is less than 4.
Outgoing: No

Incoming: Take the compound O=C(O)[C@H]1CC[C@@H](Oc2nc3c(F)c(-c4ccc(N5CCCC5)cc4)c(F)cc3[nH]2)CC1 and say whether its Ratio is less than 4.
Outgoing: No

Further cases:
Incoming: Take the compound O[C@@H]1CO[C@H]2[C@@H]1OC[C@H]2Oc1nc2nc(-c3ccc(-c4ccccc4)cc3)c(Cl)cc2[nH]1 and say whether its Ratio is less than 4.
Outgoing: Yes

---

Test: Apparent permeability in pig LLC-PK1 cells
Type: ADME, cell-based, Sus scrofa
EXPERIMENTAL READOUT: Papp (×10⁻⁶ cm/s)
Reply with just the number (in ×10⁻⁶ cm/s).

Form field Papp, entry O[C@@H]1CO[C@H]2[C@@H]1OC[C@H]2Oc1nc2nc(-c3ccc(-c4ccccc4)cc3)c(Cl)cc2[nH]1 : 23.6

Further cases:
Form field Papp, entry Cc1ccc(Oc2nc3cc(-c4ccc(-c5ccccc5)cc4)c(Cl)cc3[nH]2)cc1C(=O)O : 9.4

---

Assay: Unbound fraction in 10% human serum
Format: ADME, cell-free
EXPERIMENTAL READOUT: fraction unbound
Write the value as a bare number.

Consider the worked cases shown below.
Form field fraction unbound, entry O=C(O)[C@@H]1C[C@H](Oc2nc3c(F)c(-c4ccc(-c5ccccc5)cc4)c(F)cc3[nH]2)CCO1 (single isomer, unassigned) : 0.2

Form field fraction unbound, entry Cc1ccc(Oc2nc3cc(-c4ccc(-c5ccccc5)cc4)c(Cl)cc3[nH]2)cc1C(=O)O : 0.2

Form field fraction unbound, entry O=C(O)[C@H]1CC[C@@H](Oc2nc3c(F)c(-c4ccc(N5CCCC5)cc4)c(F)cc3[nH]2)CC1 : 1

Now look at this one.
Form field fraction unbound, entry O=C(O)[C@H]1CC[C@@H](Oc2nc3c(F)c(-c4ccc(-c5ccccc5)cc4)c(F)cc3[nH]2)CC1 : 0.3

---

Biological target: AMP-activated protein kinase (AMPK) alpha-1/beta-1/gamma-1 (Homo sapiens) (UniProt P54619+Q9Y478+Q13131)
Sequence (P54619 whole entry): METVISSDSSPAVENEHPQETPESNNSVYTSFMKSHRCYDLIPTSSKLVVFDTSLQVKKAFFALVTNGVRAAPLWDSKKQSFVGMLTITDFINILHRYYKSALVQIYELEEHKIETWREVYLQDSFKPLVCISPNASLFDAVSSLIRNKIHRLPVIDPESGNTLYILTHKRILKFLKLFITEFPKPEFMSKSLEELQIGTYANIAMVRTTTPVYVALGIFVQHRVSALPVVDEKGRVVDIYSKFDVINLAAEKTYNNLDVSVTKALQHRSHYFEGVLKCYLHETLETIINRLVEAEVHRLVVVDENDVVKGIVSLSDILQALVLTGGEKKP
Sequence (Q13131 whole entry partner): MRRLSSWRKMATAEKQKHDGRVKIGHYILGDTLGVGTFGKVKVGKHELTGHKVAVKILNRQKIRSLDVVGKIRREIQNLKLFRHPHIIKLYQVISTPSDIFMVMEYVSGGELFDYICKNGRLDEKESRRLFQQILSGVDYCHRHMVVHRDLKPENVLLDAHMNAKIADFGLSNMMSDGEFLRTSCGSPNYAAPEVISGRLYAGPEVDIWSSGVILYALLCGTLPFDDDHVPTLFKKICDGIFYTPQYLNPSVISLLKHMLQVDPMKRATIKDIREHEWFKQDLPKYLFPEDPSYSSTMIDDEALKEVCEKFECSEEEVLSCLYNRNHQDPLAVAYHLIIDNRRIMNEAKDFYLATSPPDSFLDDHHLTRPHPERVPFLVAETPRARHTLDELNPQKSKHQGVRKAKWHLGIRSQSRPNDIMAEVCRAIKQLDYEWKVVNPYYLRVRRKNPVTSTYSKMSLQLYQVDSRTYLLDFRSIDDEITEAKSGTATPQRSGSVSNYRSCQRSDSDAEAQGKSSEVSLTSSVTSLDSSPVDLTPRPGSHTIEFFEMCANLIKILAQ
Sequence (Q9Y478 2-270 partner limits assumed): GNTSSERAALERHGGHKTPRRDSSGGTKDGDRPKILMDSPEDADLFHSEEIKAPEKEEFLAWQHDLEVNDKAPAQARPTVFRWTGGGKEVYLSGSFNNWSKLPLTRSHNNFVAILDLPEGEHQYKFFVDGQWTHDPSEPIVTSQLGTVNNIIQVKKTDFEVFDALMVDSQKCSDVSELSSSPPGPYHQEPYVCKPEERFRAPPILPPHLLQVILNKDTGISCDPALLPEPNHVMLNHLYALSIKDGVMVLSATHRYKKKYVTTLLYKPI
Assay: Activation of CaMKK2-phosphorylated AMPK1 alpha1/beta1/gamma1 (unknown origin) assessed as ratio of 5-(6-chloro-5-(1-methyl-1H-indol-5-yl)-1H-benzo[d]imidazol-2-yloxy)-2-methylbenzoic acid EC50 to test compound EC50 using fluorescein-labeled SAMS peptide as substrate pretreated for 30 mins in presence of AMP followed by substrate addition measured after 60 mins by fluorescence assay
Type: protein-complex assay
Respond with condition met for Ratio EC50 values of 4 and above, condition not met for values below.

The following compounds have reported results that may help.
Incoming: Record O=C(O)[C@H]1CC[C@@H](Oc2nc3nc(-c4ccc(N5CCCC5)cc4)c(Cl)cc3[nH]2)CC1 ; criterion: Ratio EC50 no lower than 4. Met?
Outgoing: condition met

Incoming: Record Cc1ccc(Oc2nc3cc(-c4ccc(-c5ccccc5)cc4)c(Cl)cc3[nH]2)cc1C(=O)O ; criterion: Ratio EC50 no lower than 4. Met?
Outgoing: condition not met

Incoming: Record O[C@@H]1CO[C@H]2[C@@H]1OC[C@H]2Oc1nc2nc(-c3ccc(-c4ccccc4)cc3)c(Cl)cc2[nH]1 ; criterion: Ratio EC50 no lower than 4. Met?
Outgoing: condition not met

Further cases:
Incoming: Record O=C(O)[C@H]1CC[C@@H](Oc2nc3c(F)c(-c4ccc(N5CCCC5)cc4)c(F)cc3[nH]2)CC1 ; criterion: Ratio EC50 no lower than 4. Met?
Outgoing: condition met

Incoming: Record O=C(O)[C@@H]1C[C@H](Oc2nc3c(F)c(-c4ccc(-c5ccccc5)cc4)c(F)cc3[nH]2)CCO1 (single isomer, unassigned) ; criterion: Ratio EC50 no lower than 4. Met?
Outgoing: condition not met

Incoming: Record O=C(O)[C@H]1CC[C@@H](Oc2nc3c(F)c(-c4ccc(-c5ccccc5)cc4)c(F)cc3[nH]2)CC1 ; criterion: Ratio EC50 no lower than 4. Met?
Outgoing: condition met
